Listing of entries alongside the reported kon.
SYSTEM TESTED: T1, ANTIBODY EXPRESSION CONTROL
T1 construct: also called mouse anti-canine antibody (capture reagent of the expression control ELISA)
RUN DESCRIPTION: SPR Biacore, expression control
Write down the numeric answer in M⁻¹ s⁻¹ and omit the unit.

Quick note, kon for Mu_10F07_VL (SEQ ID NO: 41)_W96A (antibody, V domains shown) VH: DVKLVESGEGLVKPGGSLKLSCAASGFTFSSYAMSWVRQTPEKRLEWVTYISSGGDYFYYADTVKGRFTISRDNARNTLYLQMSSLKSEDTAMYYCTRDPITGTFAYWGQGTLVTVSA VL: DIQMTQTTSSLSASLGDRVTISCRASQDITNYLNWYQQKPDGTVKLLIYYTSTLHSGVPSRFSGSGSGTDFSLTISNLEQEDIATYFCQQGHMLPATFGGGTKLEIKR landed at 107000

Quick note, kon for Mu_02D09_VH (SEQ ID NO: 31)_D62A (antibody, V domains shown) VH: EVQLVESGGGLVKPGGSLTLSCAASGFTFSDYGMHWLRQAPEKGLEWVAYISSGSRAVFFAATVKGRFTISRDNAKNTLFLQMTSLRSDDTAMYYCARDRYDGRGFAYWGQGTLVTVSA VL: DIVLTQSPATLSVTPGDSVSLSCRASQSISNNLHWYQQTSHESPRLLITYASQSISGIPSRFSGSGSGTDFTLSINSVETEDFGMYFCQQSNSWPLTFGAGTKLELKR landed at 129000

Could you now look at the following binder, please?
Quick note, kon for Mu_09E09_VH (SEQ ID NO: 35)_Y50A (antibody, V domains shown) VH: DVKLVESGEGLVKPGGSLKLSCAASGFTFSSYAMSWVRQTPEKRLEWVAAISSGGDYIYYADTVKGRFTISRDNARNTLYLQMSSLKSEDTAMYYCTRDPITGTFAYWGQGTLVTVSA VL: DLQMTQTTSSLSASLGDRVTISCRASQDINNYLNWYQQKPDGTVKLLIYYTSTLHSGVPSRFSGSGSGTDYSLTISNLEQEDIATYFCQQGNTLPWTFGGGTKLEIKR landed at 301000
